Field: pIC50. System: UniProt:P08842. Provenance: assorted publications.
Give bare numbers, as −log10 of the molar value.

Reference set (5 entries):
> print(dat)
                              record.smiles  measurement
1  NS(=O)(=O)Oc1ccc2cc(-c3ccc(NC(=O)c4ccc(F)cc4)cc3)c(=O)oc2c1         6.68
2  CCCCCc1ccc(S(=O)(=O)N[C@H]2CC[C@H]3[C@@H]4CCc5cc(O)ccc5[C@H]4CC[C@]23C)cc1         7.29
3  NS(=O)(=O)Oc1ccc2cc(-c3ccc(NC(=O)Cc4cc(F)c(F)c(F)c4)cc3)c(=O)oc2c1         6.52
4      Oc1ccc2nc(C=C3C4CC5CC(C4)CC3C5)oc2c1         6.59
5  NS(=O)(=O)Oc1ccc2cc(-c3ccc(F)c(F)c3)c(=O)oc2c1         6.55

Give one value of pIC50 per listed compound.
1. NS(=O)(=O)Oc1ccc2oc(C34CC5CC(CC(C5)C3)C4)cc(=O)c2c1
2. C[C@]12CC[C@@H]3c4cc([N+](=O)[O-])c(O)cc4CC[C@H]3[C@@H]1CC[C@@H]2NS(=O)(=O)c1ccc(-c2ccccc2)cc1
3. C[C@]12CC[C@@H]3c4cc(Br)c(O)cc4CC[C@H]3[C@@H]1CC[C@@H]2NS(=O)(=O)c1cccc(C(F)(F)F)c1
4. Cc1ccc(S(=O)(=O)N[C@H]2CC[C@H]3[C@@H]4CCc5cc(O)ccc5[C@H]4CC[C@]23C)cc1
5. NS(=O)(=O)Oc1ccc2ccc(=O)oc2c1
6. NS(=O)(=O)Oc1ccc(C(=O)OC2CCCC2)cc1

Completion:
1. 8.25
2. 7.48
3. 7.02
4. 6.68
5. 4.92
6. 5.03

# `CC(C)(C)c1ccc(S(=O)(=O)N[C@H]2CC[C@H]3[C@@H]4CCc5cc(O)c([N+](=O)[O-])cc5[C@H]4CC[C@]23C)cc1` with UniProt:P08842: pIC50 is 7.09

----------
Biological target: Steryl-sulfatase (Homo sapiens, UniProt P08842)
Sequence (P08842 whole entry): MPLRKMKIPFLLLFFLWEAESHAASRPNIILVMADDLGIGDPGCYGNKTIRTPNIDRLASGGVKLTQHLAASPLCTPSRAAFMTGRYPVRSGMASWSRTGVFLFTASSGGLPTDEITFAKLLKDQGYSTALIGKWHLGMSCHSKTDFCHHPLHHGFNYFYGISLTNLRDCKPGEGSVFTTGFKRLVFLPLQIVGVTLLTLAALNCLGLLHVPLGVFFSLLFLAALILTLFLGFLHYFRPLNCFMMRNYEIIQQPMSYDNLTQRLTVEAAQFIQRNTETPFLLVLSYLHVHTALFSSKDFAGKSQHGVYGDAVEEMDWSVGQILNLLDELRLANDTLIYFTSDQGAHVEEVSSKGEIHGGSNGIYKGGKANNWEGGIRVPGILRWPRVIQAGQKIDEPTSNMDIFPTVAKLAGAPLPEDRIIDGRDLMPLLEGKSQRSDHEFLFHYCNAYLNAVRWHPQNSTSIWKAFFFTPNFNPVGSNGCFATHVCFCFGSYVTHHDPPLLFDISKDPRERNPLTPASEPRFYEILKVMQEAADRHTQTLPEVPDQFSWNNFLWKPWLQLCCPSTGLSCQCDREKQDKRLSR
Field: IC50. System: Steryl-sulfatase (Homo sapiens, UniProt P08842). Provenance: assorted publications.
Numbers only, in µM.

Reference set (6 entries):
> print(dat)
                              record.smiles  measurement
1  CSc1cc2c(cc1OS(N)(=O)=O)CC[C@@H]1[C@@H]2CC[C@]2(C)[C@@H](OS(N)(=O)=O)CC[C@@H]12         0.32
2  CC(C)c1ccc(S(=O)(=O)N[C@H]2CC[C@H]3[C@@H]4CCc5cc(O)ccc5[C@H]4CC[C@]23C)cc1        0.062
3                   NS(=O)(=O)Oc1ccc(Cl)cc1         1580
4     NS(=O)(=O)Oc1ccc(C(=O)OC2CCCCCCC2)cc1         0.17
5       NS(=O)(=O)Oc1ccc(C(=O)c2ccccc2O)cc1          4.6
6       NS(=O)(=O)Oc1ccc(C(=O)Cc2ccccc2)cc1           33

Give one value of IC50 per listed compound.
1. C[C@]12CC[C@@H]3c4cc([N+](=O)[O-])c(O)cc4CC[C@H]3[C@@H]1CC[C@@H]2NS(=O)(=O)c1cccc(Br)c1
2. CCCCCCCCCC(=O)c1ccc(OS(N)(=O)=O)cc1

Completion:
1: 0.05; 2: 13

Give one value of IC50 per listed compound.
1. C[C@]12CC[C@@H]3c4ccc(O)cc4CC[C@H]3[C@@H]1CC[C@@H]2NS(=O)(=O)c1ccc(F)cc1
2. C[C@]12CC[C@@H]3c4ccc(O)c(C(=O)O)c4CC[C@H]3[C@@H]1CCC2=O

Completion:
1. 0.479
2. 215
